System: Proteus mirabilis 1
Readout Name: MIC (µg/mL)

• C=CC1=C(C(=O)O)N2C(=O)C(NC(=O)/C(=N\OC/C=C/C(=O)O)c3csc(N)n3)C2SC1 (stereo not drawn) = 0.1
• C=CC1=C(C(=O)O)N2C(=O)C(NC(=O)/C(=N\OCC(=O)O)c3nc(N)sc3Cl)C2SC1 (stereo not drawn) = 0.2
• C=CC1=C(C(=O)O)N2C(=O)C(NC(=O)/C(=N\OC)c3csc(N)n3)C2SC1 (stereo not drawn) = 0.05
• C=CC1=C(C(=O)O)N2C(=O)C(NC(=O)/C(=N\OCCCC(=O)O)c3csc(N)n3)C2SC1 (stereo not drawn) = 0.1
• C=CC1=C(C(=O)O)N2C(=O)C(NC(=O)/C(=N\OCC(=O)OC[C@H](N)C(=O)O)c3csc(N)n3)C2SC1 (stereo partly drawn) = 0.05

* * *

Measurement Protocol: Determination of serum levels after oral administration in rats (disc method)
Assay type: in vivo, SD strain
Measurement Context: rat, 1 hour, 100 mg/kg orally, fasted male SD rats, read-out: Mean Serum Level
Readout Name: concentration at 1 h (ng/mL)

- C=CC1=C(C(=O)O)N2C(=O)C(NC(=O)[C@H](N)c3cccc(NS(C)(=O)=O)c3)[C@H]2SC1 (stereo partly shown) [Compound A]: 38500

* * *

Measurement Protocol: Determination of serum levels after oral administration in rats (disc method)
Type: in vivo, SD strain
Measurement Context: rat, 2 hours, 100 mg/kg orally, fasted male SD rats, read-out: Mean Serum Level
Readout Name: concentration at 2 h (ng/mL)

• C=CC1=C(C(=O)O)N2C(=O)C(NC(=O)[C@H](N)c3cccc(NS(C)(=O)=O)c3)[C@H]2SC1 (stereo partly shown) = 34900

* * *

Measurement Protocol: Determination of serum levels after oral administration in rats (disc method)
Assay type: in vivo, SD strain
Measurement Context: rat, 4 hours, 100 mg/kg orally, fasted male SD rats, read-out: Mean Serum Level
Readout Name: concentration at 4 h (ng/mL)

• C=CC1=C(C(=O)O)N2C(=O)C(NC(=O)[C@H](N)c3cccc(NS(C)(=O)=O)c3)[C@H]2SC1 (stereo partly shown) = 31000

* * *

Below are compounds with their MIC as measured on Proteus mirabilis 18.
Readout Name: MIC

- C=CC1=C(C(=O)O)N2C(=O)C(NC(=O)/C(=N\OCC(=O)O)c3nc(N)sc3Cl)C2SC1 (stereo not drawn) [Compound N]: 0.05 µg/mL
- C=CC1=C(C(=O)O)N2C(=O)C(NC(=O)/C(=N\OC)c3csc(N)n3)C2SC1 (stereo not drawn) [Compound I]: < 0.025 µg/mL
- C=CC1=C(C(=O)O)N2C(=O)C(NC(=O)/C(=N\OCC(=O)O)c3csc(N)n3)C2SC1 (stereo not drawn) [Compound M]: < 0.025 µg/mL
- C=CC1=C(C(=O)O)N2C(=O)C(NC(=O)/C(=N\OCC(=O)OC[C@H](N)C(=O)O)c3csc(N)n3)C2SC1 (stereo partly drawn) [Compound L]: 0.05 µg/mL
- C=CC1=C(C(=O)O)N2C(=O)C(NC(=O)/C(=N\OC/C=C/C(=O)O)c3csc(N)n3)C2SC1 (stereo not drawn) [Compound O]: 0.1 µg/mL
- C=CC1=C(C(=O)O)N2C(=O)C(NC(=O)/C(=N\OCCCC(=O)O)c3csc(N)n3)C2SC1 (stereo not drawn) [Compound P]: 0.05 µg/mL

* * *

Recorded measurements of MIC, one per entry
Test system: Staphylococcus aureus 209P JC-1
Readout Name: MIC (µg/mL)

- C=CC1=C(C(=O)O)N2C(=O)C(NC(=O)Cc3csc(N)n3)[C@H]2SC1 (stereo partly drawn): 1.56
- C=CC1=C(C(=O)O)N2C(=O)C(NC(=O)Cc3cnc(NS(C)(=O)=O)s3)[C@H]2SC1 (stereo partly drawn): 1.56
- C=CC1=C(C(=O)O)N2C(=O)C(NC(=O)[C@H](N)c3cccc(NS(C)(=O)=O)c3)[C@H]2SC1 (stereo partly drawn): 1.56

Cited source for all entries: patent US4487927A
